All values here come from the supplement of paper PMC9170038.

test system: MS2 coat protein; test: apparent KD of MS2 coat protein; higher = weaker reporter binding; conditions: Eterna round: R107; input ligand: theophylline 20 uM
This section presents sequences with their documented apparent KD of MS2 coat protein values.

• UGCCGAGACGUGGAUUACCCAUGUACAGAAGGAGCGCCCGAAAGGGCAGGUAGGUCGCUGAGGACAUGAGGAUCACCCAUGUCGA = 52 nM
• GCUACAUGAGGAUCACCCAUGUGUACUGAAGGAGCGGCGGAAACGCCAGGUAGGUCGCAGUAUGUGGCUCUGGGCACGAGAUGGC [SSAA NP+V+V2 #1] = 39.4 nM
• CAUAUAUAUUGAAGGAGCGUCGAAAAUGGGUAAACAUGAGGAUCACCCAUGUAAAGGGAACGACAGGUAGGUCGCAAUAUAUAUG [AstromonsSSArgB#4] = 199 nM
• UAGAAACGUACGGCCGCCACUCGGAAUUGGCUCAGACCAUACGUACAUGAGGAUCACCCAUGUUAGAGGACCGGGUAUAAUCUAA [theeternabot_sameState_MS2_Trp_B_46] = 30.8 nM
• UGUAUGUGAUCUGAUACCAGCUAGCGGAAACGCAAAAGCUUGAGGAUCACCCAAGUGGAAAGCCCUUGGCAGCAGAUCGCAUACU [Denovo 1 #StaticStem #AlternativeMS2] = 14.7 nM

Look at this sequence and give its reported apparent KD of MS2 coat protein. GCACCAGGUACGGAUACCAGCUAUAGGCCCAAUGGGCGACAUGAGGAUCACCCAUGUAAUGGCCCUUGGCAGCUGUACCUGGUGC [SSThB NP+V+V2 #11 +-Same Structure]
67.2 nM

Please report the recorded apparent KD of MS2 coat protein for GCUGCACAUUCGGCCGCCACUGCUGUUACAGGAAGCUAUAGCUCACAUGAGGAUCACCCAUGUCCCAGGACCGGGAAAGUAUGGA [theeternabot_sameState_MS2_Trp_B_39] .
79.2 nM

// apparent KD of MS2 coat protein lookup, key: UGGCAAGAGGGAAGGAGCGUCAGCUGAGUCACAUGAGGAUCACCCAUGUCGCACAUAGUGUGACAGGUAGGUCGCCCUCUACCCU [Rearian]
209 nM

So what does the record say about apparent KD of MS2 coat protein for GGUUACUCUACGGCCGCCACUGAUUAAUUAUAAACCUGUACAUAAACAUGAGGAUCACCCAUGUACAGGACCGGGUAGUGUAACC [Tryptophan B 9] ?
46.9 nM

Tell me the measured apparent KD of MS2 coat protein of UACAUGAGGAUCACCCAUGUGUAACCAGAAGGAGCGUGCGAAAGCACAGGUAGGUCGCUGGUGGGUUUAGGUUUAAUAGGUGUAU [SSAA NP+V+V2 #4 +-Same Structure] , please.
54.1 nM

Requested field: apparent KD of MS2 coat protein. Item: GAAGGAGAGUGAUCCACUCCUUCUCUGGAAGGAGCGAGCGAAAGCUCAGGUAGGUCGCCAGAAACAUGAGGAUCACCCAUGUAAU [(A)''-(M)'-(A)'-(Arg1)-(Arg2)-(M1)-(M2)_Design7]
92.6 nM

Entry ACGUCUCGAAAACUCGUAGUAACAAUAGAUACCAGUAGCGAGAGUUACCCUUGGCAGCUACAUGAGGAUCACCCAUGUACGAGGA [XTheo A #27] has what apparent KD of MS2 coat protein?
26 nM
